Molecular target: T1, A-beta(1-16) peptide (human)
T1 construct: Bachem peptide captured on streptavidin chip; also called monomeric A-beta(1-16)
T1 peptide: DAEFRHDSGYEVHHQK-biotin
Assay: SPR on captured A-beta(1-16)
Ends that are not written are not given here.

BINDER	binding result
ABII42D4 (VHH, also called ABIIPMP42D4) VHH: EVQLVESGGGLVLAGGSLRLSCVHSGPTFSTDTMGWFRQAPGKEREFVAAVTWNSGRTNYADSVKGRFTVSRDNTRNAAYLQMSGLKDEDTAVYYCTAHRLVVGGTSVGDWRYWGQGTQVTVSS	binds
ABII42G10 (VHH) VHH: EVQLVESGGGLVQAGGSLRLSCLFSGRTFSTNGVGWFRQVPGKEREFVSAINWSGSKTNYAEPVKGRFTISRDNAKNTAYLQMNSLKPEDTAVYYCAAYRTSISRYEYAYWGQGTQVTVSS	binds
ABII60D2 (VHH) VHH: EVQLVESGGGSVQAGGSLRLSCAYSGSIFSIKTMGWYRQAPGKQRELVGRITSGDSTNYADSVKGRFTISRDKAKTTVYLQMNNLKPEDTAVYYCAARRPWPRSDVWGQGTQVTVSS	binds
